# measurement_protocol: Determination of half life in serum: cleavage of promoieties from capped D-amino acid model peptides
# Format: in vitro ADME
# stated_conditions: 100% serum, 37° C.; read-out: t 1/2 (h), cleavage of promoiety linked to N terminus of model peptide X-G-dI-dV-dE-dQ-dA-dA (converted)
Numbered stars: 1 amine (or outer) side, 2 acyl side, 3 side chain; on linkers, the order of the positions; unused ones are H or OH. Square brackets hold non-standard residues; d marks the D form. Peptide text beside a SMILES is read from it. * marks the point of attachment. X8 = C[C@@H](C(=O)[*:2])n1nncc1[C@@H](N)CCCCN[*:1]; X3 = NCc1cccn1[C@@H](CCCCN[*:1])C(=O)[*:2]; Fmoc = O=C(OCC1c2ccccc2-c2ccccc21)*; X15 = NCc1cc(S(N)(=O)=O)ccc1C(=O)*
Task for the reader: assign each of the following molecules its reported half-life.
# unit: h | format: bare number

Fill blank: measured half-life of the molecule CC[C@@H](C)[C@@H](NC(=O)CNC(=O)[C@H](CCCCNC(=O)OCC1c2ccccc2-c2ccccc21)n1cccc1CN)C(=O)N[C@@H](C(=O)N[C@H](CCC(=O)O)C(=O)N[C@H](CCC(N)=O)C(=O)N[C@H](C)C(=O)N[C@H](C)C(=O)O)C(C)C (Fmoc-[X3]G[dI][dV][dE][dQ][dA][dA]-OH) is ____.
103

Fill blank: measured half-life of the molecule CC[C@@H](C)[C@@H](NC(=O)CNC(=O)c1ccc(S(N)(=O)=O)cc1CN)C(=O)N[C@@H](C(=O)N[C@H](CCC(=O)O)C(=O)N[C@H](CCC(N)=O)C(=O)N[C@H](C)C(=O)N[C@H](C)C(=O)O)C(C)C (X15-G[dI][dV][dE][dQ][dA][dA]-OH) is ____.
39.9

Fill blank: measured half-life of the molecule CC[C@@H](C)[C@@H](NC(=O)CNC(=O)[C@H](C)n1nncc1[C@@H](N)CCCCNC(=O)OCC1c2ccccc2-c2ccccc21)C(=O)N[C@@H](C(=O)N[C@H](CCC(=O)O)C(=O)N[C@H](CCC(N)=O)C(=O)N[C@H](C)C(=O)N[C@H](C)C(=O)O)C(C)C (Fmoc-[X8]G[dI][dV][dE][dQ][dA][dA]-OH) is ____.
96.4
